Measured pKi on Schisto B 2 (Schistosoma mansoni, UniProt Q95PM1) follows.
Sequence (Q95PM1 entry or part of it): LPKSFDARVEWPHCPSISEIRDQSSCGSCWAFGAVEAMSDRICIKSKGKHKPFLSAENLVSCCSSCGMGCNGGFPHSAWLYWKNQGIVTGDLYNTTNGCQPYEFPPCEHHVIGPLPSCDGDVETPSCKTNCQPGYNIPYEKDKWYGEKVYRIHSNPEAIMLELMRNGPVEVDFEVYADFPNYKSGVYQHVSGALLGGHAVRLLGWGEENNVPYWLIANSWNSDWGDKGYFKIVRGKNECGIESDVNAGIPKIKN
Units for pKi: none; it is -log10 of a concentration expressed in mol/L.

[[record]]
compound = "CC(C)C[C@H](NC(=O)c1cc2ccccc2n1C)C(=O)N[C@H]1CCCN(S(=O)(=O)c2ccc(F)cc2)CC1=O"
data_value = 5.96

[[record]]
compound = "COc1cccc(S(=O)(=O)N2CCC[C@H](NC(=O)[C@H](CC(C)C)NC(=O)c3cc4ccccc4o3)C(=O)C2)c1"
data_value = 6.77

[[record]]
compound = "CC(C)C[C@@H](NC(=O)c1ccc2c(c1)OCO2)C(=O)N[C@@H]1CCCN(S(=O)(=O)c2ccc(F)cc2)CC1=O (stereo in doubt)"
data_value = 6.48


Continue with the next compound.
Given the entry CC(C)CC(NC(=O)c1cc2ccccc2s1)C(=O)NC1CCCN(S(=O)(=O)c2ccccn2)CC1=O (stereo in doubt) , what pKi was observed with Schisto B 2 (Schistosoma mansoni, UniProt Q95PM1)?
6.59

###

Readings of Ki for the listed compounds
Target: Rhodazain (Trypanosoma brucei rhodesiense, UniProt Q95PM0)
Sequence (Q95PM0 entry or part of it): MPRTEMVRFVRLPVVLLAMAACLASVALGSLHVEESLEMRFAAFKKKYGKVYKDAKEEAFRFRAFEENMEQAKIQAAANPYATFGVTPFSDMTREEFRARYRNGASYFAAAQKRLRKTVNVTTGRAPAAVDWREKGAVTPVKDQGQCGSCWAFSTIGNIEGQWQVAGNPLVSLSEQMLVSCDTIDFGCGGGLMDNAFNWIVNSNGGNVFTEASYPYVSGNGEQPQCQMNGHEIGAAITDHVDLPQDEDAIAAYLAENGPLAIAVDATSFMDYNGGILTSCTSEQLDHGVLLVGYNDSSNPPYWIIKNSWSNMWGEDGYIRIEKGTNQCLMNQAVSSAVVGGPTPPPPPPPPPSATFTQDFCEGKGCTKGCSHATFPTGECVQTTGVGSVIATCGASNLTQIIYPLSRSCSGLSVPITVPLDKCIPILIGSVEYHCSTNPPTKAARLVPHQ
Assay: Cysteine protease inhibition, progress curve method, rhodazain
Type: biochemical, Trypanosoma brucei rhodesiensi
Conditions: Rhodazain Ki (nM), 10 uM Cbz-Leu-Arg-AMC, 100 mM Na acetate pH 5.5, 5 mM cysteine
// units = nM; emit number, no label

The examples below pair each entry with its known result.
[[record]]
compound = "CC(C)C[C@@H](NC(=O)c1ccc(Br)o1)C(=O)N[C@@H]1CCCN(S(=O)(=O)c2cccc[n+]2[O-])CC1=O [Example 47]"
quantity_measured = "Ki"
data_value = 2.7

[[record]]
compound = "Cc1ccc2oc(C(=O)NC(CC(C)C)C(=O)N[C@H]3CCN(S(=O)(=O)c4cccc[n+]4[O-])CCC3=O)c(C)c2c1 (single isomer, unassigned)"
quantity_measured = "Ki"
data_value = 4.9

[[record]]
compound = "Cc1c(C(=O)N[C@H](CC(C)C)C(=O)N[C@H]2CCCN(S(=O)(=O)c3cccc[n+]3[O-])CC2=O)oc2ccc(F)cc12 (single isomer, unassigned)"
quantity_measured = "Ki"
data_value = 6.6

[[record]]
compound = "COc1ccc2oc(C(=O)N[C@@H](CC(C)C)C(=O)N[C@H]3CCN(S(=O)(=O)c4cccc[n+]4[O-])CCC3=O)c(C)c2c1"
quantity_measured = "Ki"
data_value = 3.2

[[record]]
compound = "CC(C)C[C@@H](NC(=O)c1ccc2cc[nH]c2c1)C(=O)N[C@@H]1CCCN(S(=O)(=O)c2ccccn2)CC1=O (stereo in doubt)"
quantity_measured = "Ki"
data_value = 3.1


Give the measured Ki of COc1cc2cc(C(=O)N[C@H](CC3CCCCC3)C(=O)NC3CCCN(S(=O)(=O)c4cccc[n+]4[O-])CC3=O)oc2cc1OC (some centres unmarked) .
4.7

And what about the compound `COc1ccc2oc(C(=O)N[C@@H](CC(C)C)C(=O)N[C@H]3CCCN(C(=O)Nc4ccccc4F)CC3=O)cc2c1` ?
1.2

###

Target: UniProtKB Q95PM0
Assay: Cysteine protease inhibition, progress curve method, rhodazain
Type: biochemical, Trypanosoma brucei rhodesiensi
Conditions: Rhodazain Ki (nM), 10 uM Cbz-Leu-Arg-AMC, 100 mM Na acetate pH 5.5, 5 mM cysteine
Decide using Ki alone. Strictly below 5 nM: class 1. Equal to or above 5 nM: class 0.

Recorded results for 2 compounds are shown here.
[[record]]
compound = "CC(C)C[C@@H](NC(=O)c1ccc2c(c1)OCO2)C(=O)N[C@@H]1CCCN(S(=O)(=O)c2cccc[n+]2[O-])CC1=O [Example 55]"
assay_target = "UniProtKB Q95PM0"
class = "class 0"

[[record]]
compound = "CC(C)CC(NC(=O)c1cc2ccccc2o1)C(=O)N[C@H]1CCCN(S(=O)(=O)c2nccn2C)CC1=O (stereo partly shown) [Example 40]"
assay_target = "UniProtKB Q95PM0"
class = "class 1"


Find out if reported Ki for Cc1cccnc1S(=O)(=O)N1CCC[C@@H](NC(=O)[C@@H](CC(C)C)NC(=O)c2oc3ccccc3c2C)C(=O)C1 (stereo in doubt) [Example 161] is less than 5 nM
class 0

And what about the compound Cc1c(C(=O)N[C@@H](CC(C)C)C(=O)N[C@H]2C[C@H](C)CN(S(=O)(=O)c3ccccn3)CC2=O)oc2ccccc12 [Example 199] ?
class 1
